TGT: BsCspB (cold shock protein B) (UniProt P32081 1-67)
Sequence (P32081 whole entry): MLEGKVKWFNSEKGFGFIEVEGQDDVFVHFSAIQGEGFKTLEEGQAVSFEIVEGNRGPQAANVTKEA
PROCEDURE_TEXT: intrinsic Trp fluorescence quenching; 100 g/L Dex20 (series b); 20 mM disodium phosphate pH 7.0, no added salt stated; fluorescence titration 298 K (0.5, 2.8 or 4 uM protein; table marks a/b not explained in the material); stopped-flow 288 K (60 or 300 nM protein); NMR 298 or 294.4 K with 5% D2O
PARTICULARS: protein: recombinant; single strand
REPORTED_PROPERTY: pKd
Lab note — pKd values are minus log10 of concentrations in M.

Query: Determine its reported pKd: TTTTT (ssDNA) [dT5]
Response: 6.15
